Reported pEC50 is given for each of the following binders.
- Experimental target: T1, human CD19 on CHO-K1-human CD19 cells (human, UniProt P15391 20-556)
- T1 construct: whole, on cells; also called CHO-K1-human CD19-2C8
- T1 sequence (looked up): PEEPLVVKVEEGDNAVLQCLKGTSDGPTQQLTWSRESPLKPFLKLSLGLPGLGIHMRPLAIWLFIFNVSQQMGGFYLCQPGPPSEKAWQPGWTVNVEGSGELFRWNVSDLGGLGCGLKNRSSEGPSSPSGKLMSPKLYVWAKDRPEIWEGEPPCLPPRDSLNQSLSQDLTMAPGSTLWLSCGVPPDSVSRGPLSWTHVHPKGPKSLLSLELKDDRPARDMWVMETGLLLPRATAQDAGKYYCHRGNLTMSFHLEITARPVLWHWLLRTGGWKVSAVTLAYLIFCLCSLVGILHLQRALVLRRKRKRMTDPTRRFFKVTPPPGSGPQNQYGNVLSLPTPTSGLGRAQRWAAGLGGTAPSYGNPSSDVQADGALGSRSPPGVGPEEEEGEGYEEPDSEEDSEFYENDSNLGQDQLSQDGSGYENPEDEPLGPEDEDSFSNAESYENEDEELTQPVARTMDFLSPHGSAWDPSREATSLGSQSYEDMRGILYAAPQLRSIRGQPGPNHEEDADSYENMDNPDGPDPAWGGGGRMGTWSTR
- Measurement notes: FACS on CHO-K1-human CD19 cells
pEC50: −log10 of the molar value.

{"columns": ["Binder", "pEC50"],
 "data": [
  ["F3.121.4-L3H2 (antibody, mouse IgG1, kappa, V domains shown, humanized antibody of F3.121.4, VL3+VH2, murine IgG1 constant regions) VH: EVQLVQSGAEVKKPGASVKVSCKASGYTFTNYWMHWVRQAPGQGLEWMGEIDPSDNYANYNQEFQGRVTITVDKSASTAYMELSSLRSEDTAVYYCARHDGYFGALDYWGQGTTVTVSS VL: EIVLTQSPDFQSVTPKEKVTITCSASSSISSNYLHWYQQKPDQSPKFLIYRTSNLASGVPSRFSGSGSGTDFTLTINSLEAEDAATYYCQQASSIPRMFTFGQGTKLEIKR", 8.97],
  ["F3.121.4-L2H2 (antibody, mouse IgG1, kappa, V domains shown, humanized antibody of F3.121.4, VL2+VH2, murine IgG1 constant regions) VH: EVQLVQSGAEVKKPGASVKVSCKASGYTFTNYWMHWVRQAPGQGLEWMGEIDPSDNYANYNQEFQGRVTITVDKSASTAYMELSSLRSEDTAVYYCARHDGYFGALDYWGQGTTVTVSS VL: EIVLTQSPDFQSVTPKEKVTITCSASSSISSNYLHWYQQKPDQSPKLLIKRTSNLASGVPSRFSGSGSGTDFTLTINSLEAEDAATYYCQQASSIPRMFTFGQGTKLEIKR", 8.94],
  ["F3.121.4-L1H2 (antibody, mouse IgG1, kappa, V domains shown, humanized antibody of F3.121.4, VL1+VH2, murine IgG1 constant regions) VH: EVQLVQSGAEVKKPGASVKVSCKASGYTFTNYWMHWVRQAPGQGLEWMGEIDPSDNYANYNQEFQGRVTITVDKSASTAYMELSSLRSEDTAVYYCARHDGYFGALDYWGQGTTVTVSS VL: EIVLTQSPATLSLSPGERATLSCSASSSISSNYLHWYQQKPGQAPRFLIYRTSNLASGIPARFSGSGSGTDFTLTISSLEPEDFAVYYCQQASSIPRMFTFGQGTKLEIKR", 8.91],
  ["F3.121.4 (antibody, human IgG1, V domains shown, human-murine chimeric antibody, human IgG1 constant; also called chimeric antibody F3.121.4) VH: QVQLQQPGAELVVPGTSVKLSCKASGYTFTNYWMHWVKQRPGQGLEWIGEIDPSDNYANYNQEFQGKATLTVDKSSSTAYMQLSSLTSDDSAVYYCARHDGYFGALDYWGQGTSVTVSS VL: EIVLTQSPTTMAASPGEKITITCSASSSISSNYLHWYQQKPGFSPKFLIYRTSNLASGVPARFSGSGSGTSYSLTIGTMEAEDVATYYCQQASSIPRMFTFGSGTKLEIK", 9.52],
  ["F3.121.4-L2H1 (antibody, mouse IgG1, kappa, V domains shown, humanized antibody of F3.121.4, VL2+VH1, murine IgG1 constant regions) VH: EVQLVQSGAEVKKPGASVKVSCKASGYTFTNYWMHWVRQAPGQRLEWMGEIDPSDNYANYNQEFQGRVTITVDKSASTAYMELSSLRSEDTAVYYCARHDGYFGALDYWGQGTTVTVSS VL: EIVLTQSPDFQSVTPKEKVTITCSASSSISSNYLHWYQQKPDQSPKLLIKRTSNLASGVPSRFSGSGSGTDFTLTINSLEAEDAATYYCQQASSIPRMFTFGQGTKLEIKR", 8.97],
  ["F3.121.4-L3H1 (antibody, mouse IgG1, kappa, V domains shown, humanized antibody of F3.121.4, VL3+VH1, murine IgG1 constant regions) VH: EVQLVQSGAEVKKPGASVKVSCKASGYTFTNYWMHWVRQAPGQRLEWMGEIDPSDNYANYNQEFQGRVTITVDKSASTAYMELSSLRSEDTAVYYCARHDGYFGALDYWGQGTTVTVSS VL: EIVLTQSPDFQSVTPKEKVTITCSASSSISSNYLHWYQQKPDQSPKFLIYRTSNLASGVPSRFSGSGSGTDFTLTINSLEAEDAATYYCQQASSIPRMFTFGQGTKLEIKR", 8.95],
  ["F3.121.4-L1H1 (antibody, mouse IgG1, kappa, V domains shown, humanized antibody of F3.121.4, VL1+VH1, murine IgG1 constant regions) VH: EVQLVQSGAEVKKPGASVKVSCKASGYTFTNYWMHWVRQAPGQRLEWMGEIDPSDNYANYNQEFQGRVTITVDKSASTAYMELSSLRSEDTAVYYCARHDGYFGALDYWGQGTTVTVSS VL: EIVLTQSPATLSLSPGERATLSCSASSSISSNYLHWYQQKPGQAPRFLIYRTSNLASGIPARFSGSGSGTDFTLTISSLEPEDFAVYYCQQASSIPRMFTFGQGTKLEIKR", 8.93]
]}

These entries and their values trace back to patent US20250042994A1.
